- Procedure details: Protein binding in human plasma
- Format: ADME, cell-free
- Condition label: read-out: PPB (converted)
Quantity name: fraction unbound
A bare number is all that is needed in reply.

Form: molecule = COc1cc2c(cc1OC)C(=O)C(CC1(F)CCN(Cc3ccccc3F)CC1)C2 (stereo unspecified) ; fraction unbound = 0.022

* * *

- Procedure details: Permeability in human Caco-2 cells at 2 to 50 uM
- Format: ADME, cell-based
- Condition label: dose 2-50 µM, read-out: permeability
Quantity name: Papp at up to 50 µM (×10⁻⁶ cm/s)
Your answer is read as ×10⁻⁶ cm/s, so omit the unit and give the number.

Form: molecule = COc1cc2c(cc1OC)C(=O)C(CC1(F)CCN(Cc3ccccc3F)CC1)C2 (stereo unspecified) ; Papp at up to 50 µM = 0.574

* * *

- Procedure details: AUC (0 to infinity) in Sprague-Dawley rat at 0.5 mg/kg, iv
- Format: ADME, organism-based
- Parameters: time infinity, route intravenous, dose 0.5 mg/kg
- Condition label: in vivo
Quantity name: AUC(0-inf)
The answer consists of two parts: a number and, after it, its unit.

Form: compound = COc1cc2c(cc1OC)C(=O)C(CC1(F)CCN(Cc3ccccc3F)CC1)C2 (stereo unspecified) ; AUC(0-inf) = 395 ng·h/mL

* * *

- Study target: Cytochrome P450 2C8 (Homo sapiens)
- Sequence (P10632 whole entry): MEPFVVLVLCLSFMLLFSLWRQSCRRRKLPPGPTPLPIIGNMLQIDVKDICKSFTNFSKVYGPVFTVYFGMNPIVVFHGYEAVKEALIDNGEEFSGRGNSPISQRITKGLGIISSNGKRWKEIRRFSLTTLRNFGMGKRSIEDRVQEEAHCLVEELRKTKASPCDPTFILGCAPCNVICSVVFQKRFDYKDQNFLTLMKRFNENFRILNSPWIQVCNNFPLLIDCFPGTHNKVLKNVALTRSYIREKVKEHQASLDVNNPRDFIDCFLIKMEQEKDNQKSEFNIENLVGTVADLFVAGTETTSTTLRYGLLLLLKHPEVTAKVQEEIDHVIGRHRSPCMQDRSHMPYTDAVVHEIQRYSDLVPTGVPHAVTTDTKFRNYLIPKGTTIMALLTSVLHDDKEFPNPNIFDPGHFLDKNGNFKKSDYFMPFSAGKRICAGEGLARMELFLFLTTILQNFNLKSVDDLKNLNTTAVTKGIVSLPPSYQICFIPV
- Procedure details: Inhibition of CYP2C8 in human hepatocytes
pIC50: −log10 of the molar value.
Quantity name: pIC50

Form: molecule = COc1cc2c(cc1OC)C(=O)C(CC1(F)CCN(Cc3ccccc3F)CC1)C2 (stereo unspecified) ; pIC50 = < 4.52

* * *

- Procedure details: Tmax in Beagle dog at 0.25 mg/kg, po
- Format: ADME, organism-based, Canis lupus familiaris
- Condition label: in vivo
Quantity name: Tmax (min)
Your answer is read as min, so omit the unit and give the number.

Form: compound = COc1cc2c(cc1OC)C(=O)C(CC1(F)CCN(Cc3ccccc3F)CC1)C2 (stereo unspecified) ; Tmax = 55.2

* * *

- Procedure details: Tmax in human plasma at 2 mg, po
- Assay type: ADME, cell-free
Quantity name: Tmax
The answer consists of two parts: a number and, after it, its unit.

Form: compound = COc1cc2c(cc1OC)C(=O)C(CC1(F)CCN(Cc3ccccc3F)CC1)C2 (stereo unspecified) ; Tmax = 1.5 h

* * *

- Study target: Cytochrome P450 3A4 (Homo sapiens, UniProt P08684)
- Sequence (P08684 whole entry): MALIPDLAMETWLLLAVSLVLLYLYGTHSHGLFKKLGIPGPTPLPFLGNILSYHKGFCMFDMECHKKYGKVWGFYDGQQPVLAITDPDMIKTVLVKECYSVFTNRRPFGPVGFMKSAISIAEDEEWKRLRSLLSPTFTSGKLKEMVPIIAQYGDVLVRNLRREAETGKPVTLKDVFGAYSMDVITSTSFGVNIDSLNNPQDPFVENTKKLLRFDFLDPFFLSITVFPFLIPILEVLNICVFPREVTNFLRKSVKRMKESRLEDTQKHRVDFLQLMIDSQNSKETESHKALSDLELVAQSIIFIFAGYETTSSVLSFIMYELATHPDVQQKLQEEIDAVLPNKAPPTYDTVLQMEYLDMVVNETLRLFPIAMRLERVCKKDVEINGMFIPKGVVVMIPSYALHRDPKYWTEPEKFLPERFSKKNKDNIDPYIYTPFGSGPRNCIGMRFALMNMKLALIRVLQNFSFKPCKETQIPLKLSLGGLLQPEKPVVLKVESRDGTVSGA
- Procedure details: Inhibition of CYP3A4 in human hepatocytes
pIC50: −log10 of the molar value.
Quantity name: pIC50

Form: compound = COc1cc2c(cc1OC)C(=O)C(CC1(F)CCN(Cc3ccccc3F)CC1)C2 (stereo unspecified) ; pIC50 = < 4.52
